- Tested on: polymerase-nucleic acid complexes (ternary complexes)
- assay_notes: Stripping nucleotides from ternary complexes: crosstalk metrics after NSB wash in 2x2 examination sequencing
- Type: biochemical
- measurement_conditions: other concentrations tested in addition to Table 1
Record form. Attribute: Concentration range in NSB found effective. Fill in for each entry.

Return value of Concentration range in NSB found effective for input CCS(C)(=O)=O [ethyl methyl sulfone] , no commentary. 1.4-2.8%

Return value of Concentration range in NSB found effective for input CC(C)O [Isopropanol, reference compound] , no commentary. 16-20%

Return value of Concentration range in NSB found effective for input C[S+](C)[O-] [DMSO, dimethyl sulfoxide] , no commentary. 21-26%

Return value of Concentration range in NSB found effective for input OCCCCCCO [1,6 hexanediol] , no commentary. 10-31%

Attribution: patent US20230183798A1
